Provenance of the data: paper PMC8286599

experiment: Haemolytic assay, text summary; assay type: cell-based; details: sheep and human, sheep and human 'O' erythrocytes; read-out: Haemolysis
Assay metric: hemolysis

Item Cc1ccc(C(C)C)cc1O [Carvacrol, carvacrol] has what recorded hemolysis? 57 to 82%

----------
Assay: Haemolytic assay
Format: cell-based
Conditions: sheep erythrocytes; Sheep RBCs, 0.25X MIC; read-out: Haemolysis
Method: The haemolytic assay of the individual phytochemical was performed by measuring the release of haemoglobin from sheep and human ‘O’ erythrocytes at 540 nm. The percentage of haemolysis was calculated as (Asample – APBS)/ (ATriton−X – APBS) ×100, in which Asample is the absorbance of phytochemical treatment, APBS is the absorbance of untreated control with PBS, and ATriton−X is the absorbance of lysed cells treated with Triton X-100 measured at 540 nm.
Catalogue of compounds with associated hemolysis at 0.25 X MIC
Answer format reminder: number followed by unit.

Consider the reported hemolysis at 0.25 X MIC for these compounds:
Cc1ccc(C(C)C)c(O)c1 ... 0%
Cc1ccc(C(C)C)cc1O ... 0%

Below: the item to evaluate.
Item O=C/C=C/c1ccccc1 has what recorded hemolysis at 0.25 X MIC? 0.109%

----------
Catalogue of compounds with associated hemolysis at 2 X MIC
test: Haemolytic assay; type: cell-based; details: sheep erythrocytes; Sheep RBCs, 2X MIC; read-out: Haemolysis
Just the number in %, nothing appended.

O=C/C=C/c1ccccc1 [Cinnamaldehyde, cinnamaldehyde] ... 11.7
Cc1ccc(C(C)C)cc1O [Carvacrol, carvacrol] ... 75.7

Below: the item to evaluate.
Item Cc1ccc(C(C)C)c(O)c1 [Thymol, thymol] has what recorded hemolysis at 2 X MIC? 11.4

----------
assay: Haemolytic assay; assay type: cell-based; settings: human 'O' erythrocytes; Human RBCs, 0.50X MIC; read-out: Haemolysis
Catalogue of compounds with associated hemolysis at 0.5 X MIC
Just the number in %, nothing appended.

Consider the reported hemolysis at 0.5 X MIC for these compounds:
O=C/C=C/c1ccccc1 ... 0.696
Cc1ccc(C(C)C)cc1O ... 4.88

Item Cc1ccc(C(C)C)c(O)c1 has what recorded hemolysis at 0.5 X MIC? 1.91

----------
test: Haemolytic assay; format: cell-based; details: human 'O' erythrocytes; Human RBCs, 0.25X MIC; read-out: Haemolysis
Assay metric: hemolysis at 0.25 X MIC (%)
Just the number in %, nothing appended.

Item Cc1ccc(C(C)C)cc1O [Carvacrol, carvacrol] has what recorded hemolysis at 0.25 X MIC? 2.66

Item Cc1ccc(C(C)C)c(O)c1 [Thymol, thymol] has what recorded hemolysis at 0.25 X MIC? 1.22

Item O=C/C=C/c1ccccc1 [Cinnamaldehyde, cinnamaldehyde] has what recorded hemolysis at 0.25 X MIC? 0.554

----------
Catalogue of compounds with associated hemolysis at 8 X MIC
assay: Haemolytic assay; format: cell-based; conditions: human 'O' erythrocytes; Human RBCs, 8X MIC; read-out: Haemolysis
Just the number in %, nothing appended.

O=C/C=C/c1ccccc1 [Cinnamaldehyde, cinnamaldehyde] ... 19.1

Item Cc1ccc(C(C)C)c(O)c1 [Thymol, thymol] has what recorded hemolysis at 8 X MIC? 48.5

Item Cc1ccc(C(C)C)cc1O [Carvacrol, carvacrol] has what recorded hemolysis at 8 X MIC? 92.7

----------
tested on: Salmonella Typhimurium strains; assay type: cell-based; details: strain ST1; note: key: S- Sensitive; I- Intermediate; R- Resistant
Assay metric: Antibiotic Susceptibility testing

Consider the reported Antibiotic Susceptibility testing for these compounds:
CN(C)[C@@H]1C(O)=C(C(N)=O)C(=O)[C@@]2(O)C(O)=C3C(=O)c4c(O)cccc4[C@@](C)(O)[C@H]3C[C@@H]12 ... R
CO/N=C(\C(=O)N[C@@H]1C(=O)N2C(C(=O)O)=C(COC(C)=O)CS[C@H]12)c1csc(N)n1 ... S
C[C@@H](O)[C@H]1C(=O)N2C(C(=O)O)=C(SCCN=CN)C[C@H]12 ... S
CC(C)(O/N=C(\C(=O)N[C@@H]1C(=O)N2C(C(=O)[O-])=C(C[n+]3ccccc3)CS[C@H]12)c1csc(N)n1)C(=O)O ... S
CCn1cc(C(=O)O)c(=O)c2ccc(C)nc21 ... R

Item Cc1nnc(SCC2=C(C(=O)O)N3C(=O)[C@@H](NC(=O)Cn4cnnn4)[C@H]3SC2)s1 has what recorded Antibiotic Susceptibility testing? S

Item O=C(N[C@H](CO)[C@H](O)c1ccc([N+](=O)[O-])cc1)C(Cl)Cl has what recorded Antibiotic Susceptibility testing? R

Item O=C(O)c1cn(C2CC2)c2cc(N3CCNCC3)c(F)cc2c1=O has what recorded Antibiotic Susceptibility testing? R
